Below are IC50 values measured for Histone-lysine N-methyltransferase ASH1L (Homo sapiens, UniProt Q9NR48).

What value of IC50 has been recorded for this entry: Cc1nc(CS(=O)(=O)NCc2ccc3c(-c4cccc(C(N)=S)c4)cn(C4CCN(S(C)(=O)=O)CC4)c3c2)cs1
< 20 µM

Continue with COCc1cc2c(-c3cccc(C(N)=S)c3)cccc2n1C
20 to 100 µM

// query: NC(=S)c1cc(-c2ccccc2)cs1
> 100 µM

# iterate: NC(=S)c1cccc(-c2cn(CCCC(F)(F)F)c3cc(-c4ccn[nH]4)ccc23)c1
< 20 µM

Now the same for NC(=S)c1cccc(-c2cn(CC(CF)CF)c3cc(CO)ccc23)c1
< 20 µM

Let us now turn to NC(=S)c1cc(-c2cn(CCC(F)F)c3cc(CO)ccc23)ccc1F
< 20 µM

Next record, please: NC(=S)c1cccc(-c2cn(C3CNC3)c3cc(CO)ccc23)c1
< 20 µM

Input NC(=S)c1cccc(-n2cccc2)c1
> 100 µM

And then NC(=S)c1cccc(-c2cn(CC(CF)CF)c3cc(NC(CO)CO)ccc23)c1 , what is it?
< 20 µM

Another compound: NC(=S)c1cccc(-c2cccc3[nH]c(CNCCCO)cc23)c1
> 100 µM

// repeat for CS(=O)(=O)N1CCC(n2cc(-c3cccc(C(N)=S)c3)c3ccc(CNC(=O)Cc4cc5ccccc5[nH]4)cc32)CC1 and report
< 20 µM

====

For reference, pIC50 measured on Histone-lysine N-methyltransferase ASH1L (Homo sapiens):
pIC50: −log10 of the molar value.

* NCCn1cc(-c2cccc(C(N)=S)c2)c2ccccc21 | 4.66
* NC(=S)c1cccc(-c2cn(CC3CC(O)C(O)C3)c3cc(CO)ccc23)c1 (configuration not stated) | > 4.70
* NC(=S)c1cccc(-n2cc(CCC(F)F)c3cc(CO)ccc32)c1 | > 4.70

What does the data say about its pIC50? Entry: NC(=S)c1cccc(-c2cn(CC3C(F)(F)CC3(F)F)c3cc(CO)ccc23)c1
> 4.70

Request: NC(=S)c1cccc(-c2cn(CC(CF)CF)c3cc(NC(=O)c4cnc[nH]4)ccc23)c1
> 4.70

Then this compound: NC(=S)c1cccc(-c2cn(CC(CF)CF)c3cc(NCCc4c[nH]cn4)ccc23)c1
> 4.70

Param item: CN(C)CCNc1ccc2c(-c3cccc(C(N)=S)c3)cn(CCCC(F)(F)F)c2c1
< 4.00

Another compound to look at: CCCS(=O)(=O)N1CCC(n2cc(-c3cccc(C(N)=S)c3)c3ccc(CNC(=O)CCCCc4cccc5c4C(=O)N(C4CCC(=O)NC4=O)C5=O)cc32)CC1 (configuration not stated)
> 4.70

Now the same for CCCn1cnc(CC(=O)NCc2ccc3c(-c4cccc(C(N)=S)c4)cn(C4CCN(S(=O)(=O)CCC)CC4)c3c2)c1
> 4.70

====

pIC50: −log10 of the molar value.
# Histone-lysine N-methyltransferase ASH1L (Homo sapiens, UniProt Q9NR48): pIC50 values follow

• NC(=S)c1cccc(-c2ccc(O)cc2)n1 = < 4.00
• CC(O)COC(C)Cn1cc(-c2cccc(C(N)=S)c2)c2ccccc21 (stereo unspecified) = 4.00 to 4.70
• NC(=S)c1cc(F)cc(-c2ccc(O)cc2)c1 = < 4.00
• NCc1ccnc(-n2cccc2)c1 = < 4.00
• NC(=S)c1cc(-c2cn(CCC(F)F)c3cc(CO)ccc23)ccn1 = > 4.70

Next compound, pIC50 to be filled in.
Given the entry NC(=S)c1cccc(-c2cn(CC(CF)CF)c3cc(CO)ccc23)n1 , report its measured pIC50.
> 4.70

====

The following compounds are shown together with reported IC50 values.
Molecular target: Histone-lysine N-methyltransferase ASH1L (Homo sapiens, UniProt Q9NR48)

Reference set, count: 4
- NC(=S)c1cccc(-c2cc(CCC(F)F)c3cc[nH]c3c2)c1: < 20 µM
- CCCc1c[nH]c(CC(=O)NCc2ccc3c(-c4cccc(C(N)=S)c4)cn(C4CCN(S(C)(=O)=O)CC4)c3c2)c1: < 20 µM
- Cc1cc2c(-c3cccc(C(N)=S)c3)ccc(O)c2[nH]1: 20 to 100 µM
- NC(=S)c1cccc(-c2cn(CCC(F)F)c3cc(C(O)CO)ccc23)c1 (stereo not given): < 20 µM

If you can, please state the reported IC50 value of NC(=S)c1cccc(-c2cn(CC(CCF)CC(F)F)c3cc(N)ccc23)c1 (stereo not given) .
< 20 µM

====

pIC50: −log10 of the molar value.
Target or system Histone-lysine N-methyltransferase ASH1L (Homo sapiens, UniProt Q9NR48); recorded quantity pIC50.

In the examples that follow, each entry is paired with its recorded pIC50.
• NC(=S)c1cccc(-c2cn(CCCC(F)(F)F)c3cc(CNC(=O)c4ccccc4)ccc23)c1 = > 4.70
• NC(=O)c1cccc(-c2cn(CCC(F)F)c3cc(CO)ccc23)c1 = > 4.70
• CC(O)Cn1cc(-c2cccc(C(N)=S)c2)c2ccccc21 (stereo not given) = 4.00 to 4.70
• NC(=S)c1cccc(-c2c[nH]c3cnc(N)cc23)c1 = < 4.00
• CNc1ccc2c(-c3cccc(C(N)=S)c3)c[nH]c2c1 = 4.00 to 4.70

Which pIC50 value is on record for NC(=S)c1cccc(-n2cc(CC(CF)CF)c3cc(CO)ccc32)c1 ?
> 4.70

Then NC(=S)c1cccc(-c2cn(CCCC(F)(F)F)c3cc(NCC(F)(F)F)ccc23)c1 ?
> 4.70

What do we get for NC(=S)c1cccc(-c2cn(CCCC(F)(F)F)c3cc(CNC(=O)c4cscn4)ccc23)c1 ?
> 4.70

Try NC(=S)c1cccc(-c2cn(CCC3CC3)c3cc(CO)ccc23)c1 next.
> 4.70

Next entry: NC(=S)c1cccc(-c2cccc3[nH]c(CNCc4ccccc4)cc23)c1
< 4.00

====

Biological target: UniProt Q9NR48
Each entry below lists one item and its recorded IC50 value.

Some solved cases for reference:
• NC(=S)c1cccc(-c2cn(CC3CC3(F)F)c3cc(N)ccc23)c1 (stereo not given) = < 20 µM
• CCCS(=O)(=O)N1CCC(n2cc(-c3cccc(C(N)=S)c3)c3ccc(CNc4nnc(N)s4)cc32)CC1 = < 20 µM
• NC(=S)c1cccc(-c2cn(CCC(F)F)c3cc(NC(=O)CC4CC4)ccc23)c1 = < 20 µM
• CCn1ccc2c(-c3cccc(C(N)=S)c3)cccc21 = > 100 µM

Could you now consider this next compound?
Recorded IC50 for NC(=S)c1cc(-c2cn(CCC(F)F)c3cc(CO)ccc23)c2scnc2c1 , please?
< 20 µM

====

Measurement record for Histone-lysine N-methyltransferase ASH1L (Homo sapiens, UniProt Q9NR48); quantity recorded: IC50.

* NC(=S)c1cccc(-c2cn(C3CCN(S(=O)(=O)CCCCCc4cccc5c4C(=O)N(C4CCC(=O)NC4=O)C5=O)CC3)c3cc(CNc4nnc(N)s4)ccc23)c1 (configuration not stated) | < 20 µM

Provide the documented IC50 with Histone-lysine N-methyltransferase ASH1L (Homo sapiens, UniProt Q9NR48) as the system for NC(=S)c1cccc(-c2ccc(O)c3[nH]ccc23)c1
20 to 100 µM

Similarly, NC(=S)c1cccc(-c2ccccn2)c1 ?
> 100 µM

For CS(=O)(=O)N1C2CCC1CC(n1cc(-c3cccc(C(N)=S)c3)c3ccc(N)cc31)C2 (configuration not stated) then?
< 20 µM

====

Biological target: UniProtKB Q9NR48
pIC50: −log10 of the molar value.
endpoint-label: pIC50

• CS(=O)(=O)N1CCC(n2cc(-c3cccc(C(N)=S)c3)c3ccc(Nc4nccs4)cc32)CC1 = > 4.70

Can you look up the measured pIC50 of NC(=S)c1cccc(-c2cccc3[nH]c(CSP(=S)(c4ccccc4)c4ccccc4)cc23)c1 for me?
< 4.00

Repeat for the following compound: NCc1ccc2c(-c3cccc(C(N)=S)c3)cn(C3CCOCC3)c2c1
> 4.70

====

Target: Histone-lysine N-methyltransferase ASH1L (Homo sapiens, UniProt Q9NR48)
endpoint-label: IC50

Example molecules with recorded IC50:
- NC(=S)c1cccc(-c2cccc(OCc3ccccc3)c2)c1: > 100 µM
- NC(=S)c1ccnc(-c2cn(CCC(F)F)c3cc(CO)ccc23)c1: < 20 µM
- NC(=S)c1cccc(-c2cn(CC(=O)C(F)(F)F)c3cc(CO)ccc23)c1: < 20 µM
- NC(=S)c1nccs1: > 100 µM
- NC(=S)c1cccc(-c2cc(C(F)(F)F)cc3[nH]ccc23)c1: 20 to 100 µM

Quick check: IC50 of NC(=S)c1cccc(-c2cn(CC(O)CO)c3cc(N)ccc23)c1 (stereo not given) ?
< 20 µM

Try this molecule too: NC(=S)c1cccc(-c2c[nH]c3cc(C(N)=S)ccc23)c1
20 to 100 µM

Proceed to CN1c2ccccc2CCc2ccc(C(N)=S)cc21
> 100 µM

Proceed to CCCS(=O)(=O)N1CCC(n2cc(-c3cccc(C(N)=S)c3)c3ccc(CNC(=O)COc4cccc5c4C(=O)N(C4CCC(=O)NC4=O)C5=O)cc32)CC1 (stereo not given)
< 20 µM

What do we get for NC(=S)c1cccc(-c2cn(CCC(F)(F)F)c3cc(N)ccc23)c1 ?
< 20 µM

Queued: CCNc1c[nH]c(CC(=O)NCc2ccc3c(-c4cccc(C(N)=S)c4)cn(C4CCN(S(C)(=O)=O)CC4)c3c2)c1
< 20 µM

Repeat with NC(=S)c1cccc(-c2ccc(O)c(F)c2)c1
> 100 µM

Check NC(=S)c1cccc(-c2c[nH]c3c(CO)cccc23)c1 too.
20 to 100 µM

Next record, please: NC(=S)c1cc(-c2cn(CC(CF)CF)c3cc(CO)ccc23)ccc1F
< 20 µM

Param item: Cc1c(CO)ccc2c(-c3cccc(C(N)=S)c3)cn(CCCC(F)(F)F)c12
< 20 µM

// next record NC(=S)c1cccc(-c2cn(C3CCN(S(=O)(=O)CCCNC(=O)c4ccc5c(c4)C(=O)OC54c5ccc(O)cc5Oc5cc(O)ccc54)CC3)c3cc(CNC(=O)Cc4c[nH]cn4)ccc23)c1
< 20 µM

What about this molecule? NC(=S)c1cccc(-c2c[nH]c3ccc(O)cc23)c1
> 100 µM

Proceed to NC(=S)c1cccc(-c2cn(CCCC(F)(F)F)c3cc(CO)ccc23)c1
< 20 µM

Another molecule to look at: NC(=S)c1cccc(-c2ccc(OCCOCCNC(=O)CCCCCNC(=O)c3ccc4c(c3)C(=O)OC43c4ccc(O)cc4Oc4cc(O)ccc43)c3[nH]ccc23)c1
> 100 µM

Now give it for NC(=S)c1cccc(-c2cn(C3CCNCC3)c3cc(N)ccc23)c1 too.
< 20 µM

All values here come from ChEMBL document CHEMBL4482324.
